targetOrSystem: UniProtKB P29597
testDetails: JAK1, JAK2 and TYK2 Inhibition Assay Protocol (Example A): TYK2 kinase domain, Caliper LabChip peptide phosphorylation
appliedConditions: isolated TYK2 kinase domain, 1 nM enzyme, 25 μM ATP, Morrison tight binding model
Structures can show the parent of a compound that is named as a salt.
measuredQuantity: Ki (nM)
One number for each entry, in nM.

molecule	scaleUnit	Ki
OCc1ccnc(Nc2nccc3nc(-c4c(Cl)cccc4Cl)sc23)c1 [Example 18]	nM	0.3
O=C(Nc1nccc2nc(-c3c(Cl)cccc3Cl)sc12)C1CC1 [Example 2]	nM	0.5
N#Cc1cnc(Nc2cc(N)ncn2)c2sc(-c3c(F)cccc3Cl)nc12 [Example 223]	nM	0.4

Which Ki reading was recorded for the molecule Cc1nc(CO)cc(Nc2nccc3nc(-c4c(Cl)cccc4C#N)sc23)n1 [Example 236, hydrochloride salt] ?
0.5

###

Give Ki for every item shown.
targetOrSystem: TYK2 (Homo sapiens (Human))
Sequence (P29597 897-1176): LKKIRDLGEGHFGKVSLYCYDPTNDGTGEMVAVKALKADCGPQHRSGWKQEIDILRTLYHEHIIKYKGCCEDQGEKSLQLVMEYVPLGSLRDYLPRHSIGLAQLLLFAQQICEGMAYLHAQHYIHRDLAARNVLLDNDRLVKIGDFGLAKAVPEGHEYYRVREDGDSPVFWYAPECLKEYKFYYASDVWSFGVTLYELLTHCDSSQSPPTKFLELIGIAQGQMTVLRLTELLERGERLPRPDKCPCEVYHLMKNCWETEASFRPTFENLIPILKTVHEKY
testDetails: JAK1, JAK2 and TYK2 Inhibition Assay Protocol (Example A): TYK2 kinase domain, Caliper LabChip peptide phosphorylation
appliedConditions: isolated TYK2 kinase domain, 1 nM enzyme, 25 μM ATP, Morrison tight binding model
Answers are plain numbers, in nM.

// solved cases for Ki follow
compoundSmiles	endpointResult
N#Cc1cc(Cl)c(-c2nc3c(F)cnc(NC(=O)C4CC4)c3s2)c(Cl)c1	1.5
Cc1cc(Nc2nccc3nc(-c4c(Cl)cc(C5CC5)cc4Cl)sc23)ncn1	4.1
Cc1cc(Nc2nccc3nc(-c4c(C#N)cc(C#N)cc4C#N)sc23)nc(C)n1	0.8

Items follow; give Ki for each.
1. O=C(CO)Nc1nccc2nc(-c3c(Cl)cccc3Cl)sc12
2. O=C(Nc1ncnc2nc(-c3c(Cl)cccc3Cl)sc12)C1CC1

[23, 6.2]
